Molecular target: carboxypeptidase U (Homo sapiens, UniProt Q96IY4)
Sequence (Q96IY4 115-423): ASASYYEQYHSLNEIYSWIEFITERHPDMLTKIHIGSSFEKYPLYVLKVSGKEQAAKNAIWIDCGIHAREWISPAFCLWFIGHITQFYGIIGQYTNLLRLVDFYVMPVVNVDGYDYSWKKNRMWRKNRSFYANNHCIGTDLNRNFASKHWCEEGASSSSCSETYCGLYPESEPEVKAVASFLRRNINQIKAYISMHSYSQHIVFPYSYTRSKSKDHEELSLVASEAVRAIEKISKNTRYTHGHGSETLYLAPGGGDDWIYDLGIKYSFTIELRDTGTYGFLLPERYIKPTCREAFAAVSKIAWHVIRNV
Test: carboxypeptidase U inhibition assay (Hendriks et al., Clinical Chemistry 31, 1936-1939 (1985))
Format: biochemical
Conditions: assay of Hendriks, Scharpé and van Sande
Readout Type: IC50
Include the unit right after the number.

Looking up CN(Cc1ccccc1)C(=O)c1cccc(CCC(S)C(Cc2ccc(N)nc2)C(=O)O)c1 (stereo not shown) , I see its IC50 listed as 600 nM

Looking up N#CCc1ccc(CCC(S)C(Cc2ccc(N)nc2)C(=O)O)cc1 (stereo not shown) , I see its IC50 listed as 800 nM

Looking up CCOC(=O)C1CCN(C(=O)c2cccc(CCC(S)C(Cc3ccc(N)nc3)C(=O)O)c2)CC1 (stereo not shown) , I see its IC50 listed as 2000 nM

Looking up Nc1ccc(CC(C(=O)O)C(S)CCc2cccc(C(=O)NCCF)c2)cn1 (stereo not shown) , I see its IC50 listed as 600 nM

Looking up Nc1ccc(CC(C(=O)O)C(S)CCc2cccc(Cl)c2)cn1 (stereo not shown) , I see its IC50 listed as 800 nM

Looking up Nc1ncc(CC(C(=O)O)C(S)CCc2ccccc2)s1 (stereo not shown) , I see its IC50 listed as 6300 nM

Looking up Nc1ccc(CC(C(=O)O)C(S)CCc2cccc(C(=O)OCCc3c(Cl)cccc3Cl)c2)cn1 (stereo not shown) , I see its IC50 listed as 600 nM
